Sourced from ChEMBL document CHEMBL4402565

Assay Info: Cytotoxicity against human RD cells assessed as reduction in cell viability incubated for 3 days by MTS assay
Type: cell-based
Assay Metric: CC50 at 72 h (µM)
Write down the numeric answer in µM and omit the unit.

In: So what does the record say about CC50 at 72 h for O=C(/C=C/c1ccccc1)N[C@@H](CC1CCCC1)C(=O)N[C@@H](C[C@@H]1CCNC1=O)C(=O)C(=O)NCc1ccccc1 ?
Out: 30.8

In: Consider next the compound O=C(/C=C/c1ccccc1)N[C@@H](CC1CCC1)C(=O)N[C@@H](C[C@@H]1CCNC1=O)C(=O)C(=O)NCc1ccccc1 in the same way.
Out: 100

In: Consider next the compound O=C(/C=C/c1ccccc1)N[C@@H](Cc1ccccc1)C(=O)N[C@@H](C[C@@H]1CCNC1=O)C(=O)C(=O)NCc1ccccc1 in the same way.
Out: 97

In: Consider next the compound O=C(/C=C/c1ccccc1)N[C@@H](CC1CC1)C(=O)N[C@@H](C[C@@H]1CCNC1=O)C(=O)C(=O)NCc1ccccc1 in the same way.
Out: 106

In: Consider next the compound O=C(/C=C/c1ccccc1)N[C@@H](CC1CCCCC1)C(=O)N[C@@H](C[C@@H]1CCNC1=O)C(=O)C(=O)NCc1ccccc1 in the same way.
Out: 17.3

In: Consider next the compound CC(C)C[C@H](NC(=O)/C=C/c1ccccc1)C(=O)N[C@@H](C[C@@H]1CCNC1=O)C(=O)C(=O)NCc1ccccc1 in the same way.
Out: 115

###

Assay Info: Therapeutic index, ratio of CC50 for human HuH7 cells expressing T7 RNA polymerase to EC50 for Human coronavirus 229E infected in human HuH7 cells expressing T7 RNA polymerase
Assay type: toxicity, cell-based
Condition Info: read-out: Ratio CC50/EC50
Assay Metric: selectivity ratio

In: So what does the record say about selectivity ratio for O=C(/C=C/c1ccccc1)N[C@@H](Cc1ccccc1)C(=O)N[C@@H](C[C@@H]1CCNC1=O)C(=O)C(=O)NCc1ccccc1 ?
Out: > 10

###

Test system: SARS-CoV
Assay Info: Antiviral activity against SARS coronavirus infected in HuH7 cells expressing T7 RNA polymerase assessed as reduction in viral RNA replication incubated for 24 hrs by luciferase reporter gene assay
Type: functional, organism-based
Condition Info: Severe acute respiratory syndrome-related coronavirus, Huh-7, 24 h
In this section, each of the molecules is paired with its reported pEC50.
Scale: negative log10 of molar concentration, which is what pEC50 denotes.

{"columns": ["Smiles Structure", "System Under Test", "pEC50"],
 "data": [
  ["CC(C)C[C@H](NC(=O)/C=C/c1ccccc1)C(=O)N[C@@H](C[C@@H]1CCNC1=O)C(=O)C(=O)NCc1ccccc1", "SARS-CoV", 5.14]
]}

Turning to the following molecule.
In: So what does the record say about pEC50 for O=C(/C=C/c1ccccc1)N[C@@H](CC1CCCC1)C(=O)N[C@@H](C[C@@H]1CCNC1=O)C(=O)C(=O)NCc1ccccc1 ?
Out: 5.44

###

Assay Info: Antiviral activity against […] infected in HuH7 cells expressing T7 RNA polymerase assessed as reduction in viral RNA replication incubated for 24 hrs by luciferase reporter gene assay
Assay type: functional, organism-based
Condition Info: B3, Huh-7, 24 h
Assay Metric: EC50 (µM)
Write down the numeric answer in µM and omit the unit.

{"columns": ["Smiles Structure", "Unit Annotation", "EC50"],
 "data": [
  ["O=C(/C=C/c1ccccc1)N[C@@H](Cc1ccccc1)C(=O)N[C@@H](C[C@@H]1CCNC1=O)C(=O)C(=O)NCc1ccccc1", "µM", 4.5]
]}

In: So what does the record say about EC50 for O=C(/C=C/c1ccccc1)N[C@@H](CC1CC1)C(=O)N[C@@H](C[C@@H]1CCNC1=O)C(=O)C(=O)NCc1ccccc1 ?
Out: 18

In: Consider next the compound O=C(/C=C/c1ccccc1)N[C@@H](CC1CCCC1)C(=O)N[C@@H](C[C@@H]1CCNC1=O)C(=O)C(=O)NCc1ccccc1 in the same way.
Out: 5.1

In: Consider next the compound O=C(/C=C/c1ccccc1)N[C@@H](CC1CCCCC1)C(=O)N[C@@H](C[C@@H]1CCNC1=O)C(=O)C(=O)NCc1ccccc1 in the same way.
Out: 2.35

In: Consider next the compound O=C(/C=C/c1ccccc1)N[C@@H](CC1CCC1)C(=O)N[C@@H](C[C@@H]1CCNC1=O)C(=O)C(=O)NCc1ccccc1 in the same way.
Out: 4.3

###

Assay Info: Therapeutic index, ratio of CC50 for human HuH7 cells expressing T7 RNA polymerase to EC50 for […] infected in human HuH7 cells expressing T7 RNA polymerase
Format: toxicity, cell-based
Condition Info: read-out: Ratio CC50/EC50
Assay Metric: selectivity ratio

In: So what does the record say about selectivity ratio for O=C(/C=C/c1ccccc1)N[C@@H](Cc1ccccc1)C(=O)N[C@@H](C[C@@H]1CCNC1=O)C(=O)C(=O)NCc1ccccc1 ?
Out: > 10

###

In this section, each of the molecules is paired with its reported pEC50.
Test system: enterovirus D68
Assay Info: Antiviral activity against Enterovirus D68 infected in HeLa Rh cells assessed as reduction in virus-induced cytopathic effect incubated for 3 days by MTS assay
Assay type: functional, organism-based
Condition Info: Enterovirus D, 72 h
Scale: negative log10 of molar concentration, which is what pEC50 denotes.

Some molecules with recorded pEC50:
{"columns": ["Smiles Structure", "Obs Value"],
 "data": [
  ["O=C(/C=C/c1ccccc1)N[C@@H](Cc1ccccc1)C(=O)N[C@@H](C[C@@H]1CCNC1=O)C(=O)C(=O)NCc1ccccc1", 6.32],
  ["O=C(/C=C/c1ccccc1)N[C@@H](CC1CCCCC1)C(=O)N[C@@H](C[C@@H]1CCNC1=O)C(=O)C(=O)NCc1ccccc1", 6.32]
]}

Turning to the following molecule.
In: So what does the record say about pEC50 for CC(C)C[C@H](NC(=O)/C=C/c1ccccc1)C(=O)N[C@@H](C[C@@H]1CCNC1=O)C(=O)C(=O)NCc1ccccc1 ?
Out: 5.35

###

Assay Info: Therapeutic index, ratio of CC50 for monkey Vero cells to EC50 for Middle East respiratory syndrome coronavirus infected in monkey Vero cells
Type: toxicity, cell-based
Condition Info: read-out: Ratio CC50/EC50
Assay Metric: selectivity ratio

In: So what does the record say about selectivity ratio for O=C(/C=C/c1ccccc1)N[C@@H](Cc1ccccc1)C(=O)N[C@@H](C[C@@H]1CCNC1=O)C(=O)C(=O)NCc1ccccc1 ?
Out: > 10

###

System: Middle East respiratory syndrome-related coronavirus
Assay Info: Antiviral activity against Middle East respiratory syndrome coronavirus infected in HuH7 cells expressing T7 RNA polymerase assessed as reduction in virus-induced cytopathic effect incubated for 2 days by non-radioactive cell proliferation assay
Type: functional, organism-based
Condition Info: Huh-7, 48 h
Assay Metric: pEC50
Scale: negative log10 of molar concentration, which is what pEC50 denotes.

Some compounds with recorded pEC50:
{"columns": ["Smiles Structure", "pEC50"],
 "data": [
  ["O=C(/C=C/c1ccccc1)N[C@@H](CC1CCCC1)C(=O)N[C@@H](C[C@@H]1CCNC1=O)C(=O)C(=O)NCc1ccccc1", 8.15],
  ["O=C(/C=C/c1ccccc1)N[C@@H](CC1CC1)C(=O)N[C@@H](C[C@@H]1CCNC1=O)C(=O)C(=O)NCc1ccccc1", 7.10],
  ["O=C(/C=C/c1ccccc1)N[C@@H](Cc1ccccc1)C(=O)N[C@@H](C[C@@H]1CCNC1=O)C(=O)C(=O)NCc1ccccc1", 8.32],
  ["CC(C)C[C@H](NC(=O)/C=C/c1ccccc1)C(=O)N[C@@H](C[C@@H]1CCNC1=O)C(=O)C(=O)NCc1ccccc1", 8.34],
  ["O=C(/C=C/c1ccccc1)N[C@@H](CC1CCCCC1)C(=O)N[C@@H](C[C@@H]1CCNC1=O)C(=O)C(=O)NCc1ccccc1", 9.40]
]}

Turning to the following compound.
In: So what does the record say about pEC50 for O=C(/C=C/c1ccccc1)N[C@@H](CC1CCC1)C(=O)N[C@@H](C[C@@H]1CCNC1=O)C(=O)C(=O)NCc1ccccc1 ?
Out: 7.70

###

Tested on: rhinovirus A2
Assay Info: Antiviral activity against Human rhinovirus 2 infected in HeLa Rh cells assessed as reduction in virus-induced cytopathic effect incubated for 3 days by MTS assay
Type: functional, organism-based
Condition Info: Rhinovirus A, 72 h
Assay Metric: log10 of EC50 (log10 of the value in µM)
Response schema: value (number) is log10 of EC50 in units of µM.

{"columns": ["Smiles Structure", "log10 of EC50"],
 "data": [
  ["CC(C)C[C@H](NC(=O)/C=C/c1ccccc1)C(=O)N[C@@H](C[C@@H]1CCNC1=O)C(=O)C(=O)NCc1ccccc1", 0.95],
  ["O=C(/C=C/c1ccccc1)N[C@@H](CC1CCCC1)C(=O)N[C@@H](C[C@@H]1CCNC1=O)C(=O)C(=O)NCc1ccccc1", -0.29],
  ["O=C(/C=C/c1ccccc1)N[C@@H](CC1CC1)C(=O)N[C@@H](C[C@@H]1CCNC1=O)C(=O)C(=O)NCc1ccccc1", 0.58],
  ["O=C(/C=C/c1ccccc1)N[C@@H](Cc1ccccc1)C(=O)N[C@@H](C[C@@H]1CCNC1=O)C(=O)C(=O)NCc1ccccc1", 0.75]
]}

In: So what does the record say about log10 of EC50 for O=C(/C=C/c1ccccc1)N[C@@H](CC1CCC1)C(=O)N[C@@H](C[C@@H]1CCNC1=O)C(=O)C(=O)NCc1ccccc1 ?
Out: 0.57

In: Consider next the compound O=C(/C=C/c1ccccc1)N[C@@H](CC1CCCCC1)C(=O)N[C@@H](C[C@@H]1CCNC1=O)C(=O)C(=O)NCc1ccccc1 in the same way.
Out: -0.19
